Reference source: patent US20190106487A1

Target: T1, mIL1RAcP-Fc (murine, UniProt Q61730 21-359)
T1 construct: also called P013_04; P013-04
T1 sequence (looked up): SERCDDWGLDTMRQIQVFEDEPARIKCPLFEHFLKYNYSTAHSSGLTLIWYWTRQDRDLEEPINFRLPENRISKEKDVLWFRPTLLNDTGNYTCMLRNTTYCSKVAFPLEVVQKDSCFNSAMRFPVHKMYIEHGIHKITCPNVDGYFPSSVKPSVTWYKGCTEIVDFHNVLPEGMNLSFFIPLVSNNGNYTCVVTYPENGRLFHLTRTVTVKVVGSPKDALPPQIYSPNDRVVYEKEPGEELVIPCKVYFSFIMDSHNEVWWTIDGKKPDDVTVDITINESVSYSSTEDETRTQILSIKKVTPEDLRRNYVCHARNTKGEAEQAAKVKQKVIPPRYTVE
Experiment: ELISA, primary supernatant, coated mu-IL-1RAcP-Fc
Please provide measured mu-IL1RaP ELISA (OD) for the entries that follow.
Just the number please, in OD, no unit attached.

(Q) Return the recorded mu-IL1RaP ELISA (OD) value; entry: P013.S.02.B.E04 (antibody, V domains shown, rabbit monoclonal antibody; also called P013.A.00088.A02) VH: QSLEESGGDLVKPGASLTLTCTASGFSLSSGGMSWVRQAPGKGLGWIGYINTGSGSTYYASWVNGRFTISKTSSTTVSLQMTSLTAADTATYFCAGGLPSDLWGPGTLVTVSS VL: DIVMTQTPSSVEAAVGGTVTIKCQASQSINSRLAWYQQKPGQPPKLLIYSASTLASGVSSRFKGSGSGTEFTLTISDLESADGATYYCLSHYLTSSSSYGDAFGGGTEVVVK
(A) 3.5

(Q) Return the recorded mu-IL1RaP ELISA (OD) value; entry: P013.S.02.B.D02 (antibody, V domains shown, rabbit monoclonal antibody; also called P013.A.00086.F05) VH: QSLEESGGDLVKPGASLKLSCTASGVSFSSAYWMCWVRQAPGKGLEWIACIYAGSSGSTYYASWAKGRFTISKTSSTTVTLQMTSLTAADTATYFCARHAAWFELDLWGPGTLVTVSS VL: ALVMTQTPSPVSAAVGGTVTINCQASQNIASAYLSWYQQKPGQPPKLLIYAASTLTDGVPSRFKGSGSVTEFTLTISGVQSDDAATYYCAGYKSYTDDEFAFGGGTEVVVK
(A) 0

(Q) Return the recorded mu-IL1RaP ELISA (OD) value; entry: P013.S.01.B.E05 (antibody, V domains shown, rabbit monoclonal antibody; also called P013.A.00086.F02) VH: QSLEESGGDLVKPGASLTLTCTASGISFSSSDFMCWVRQAPGKGLEWIACIYAGSSVSIYYATWAKGRFTISKASSTTVTLQMASLTVADTATYFCARSTGSVGRGFNLWGQGTLVTVSS VL: AQVLTQTPSPVSAAVGGTVTISCQASQSVYNSNHLSWYQQKPGQPPRLLIYSASTLASGVPSRFKGSGSGTQFTLTISGVQSDDAATYYCQGEFSCVSADCIAFGGGTEVVVK
(A) -0.1

(Q) Return the recorded mu-IL1RaP ELISA (OD) value; entry: P013.S.01.B.A06 (antibody, V domains shown, rabbit monoclonal antibody; also called P013.A.00133.B12) VH: QSLEESGGRLVTPGTPLTLSCKVSGFSLSSYDMSWVRQTPGKGLEWIGTIYIGGTTAYASWPKGRFTISKTSTTVDLKITSPTKEDTATYFCARLQGANYYNSLALWGQGTLVTVSS VL: DVVMTQTPASVSEPVGGTVTIKCQASQSIYSFLSWYQQKPGQPPKLLIYAASDLESGVPSRFSGSGYGTEFTLTISDLESADAATYYCQCNYIIDYGAFGGGTEVVVK
(A) 0

(Q) Return the recorded mu-IL1RaP ELISA (OD) value; entry: P013.S.01.B.B05 (antibody, V domains shown, rabbit monoclonal antibody; also called P013.A.00030.D07) VH: QSLEESGGRLVTPGTPLTLTCTASGFSLSSYYMSWVRQAPGKGLEWVGIISGSASTYYATWAKGRFTISKTSTTVDLKIASPTTEDTATYFCARTHYAAVAGYGYASRLDLWGQGTLVTVSS VL: AIEMTQSPPSLSASVGETVRIRCLASEDIYSGISWYQQKPGKPPTLLIYAASNLESGVPPRFSGSGSGTDYTLTIGGVQAEDAATYYCLGGYSYSNTGPTFGAGTKVEIK
(A) 0.1
